Where do the numbers come from? From ChEMBL document CHEMBL4229382.

System: Staphylococcus aureus
Protocol Details: Bactericidal activity against methicillin-sensitive Staphylococcus aureus NRS107 incubated fo 18 hrs followed by re-plating on tryptic soy agar plates at 37 degC for 18 hrs by broth microdilution assay
Type: functional
Condition Context: NRS107, 18 h
The following molecules are shown together with reported MBC values.

- Smiles Representation: "Cc1nc(-c2ccc(C(C)(C)C)cc2)sc1-c1ccnc(NC(=N)c2cccnc2)n1"
  Limit Operator: "="
  MBC, µg/mL: 4
- Smiles Representation: "Cc1nc(-c2ccc(C(C)(C)C)cc2)sc1-c1ccnc(NC(=N)N(C)C)n1"
  Limit Operator: "="
  MBC, µg/mL: 8
- Smiles Representation: "Cc1nc(-c2ccc(C(C)(C)C)cc2)sc1-c1ccnc(NC(=N)c2ccccn2)n1"
  Limit Operator: ">"
  MBC, µg/mL: 64
- Smiles Representation: "CC(=O)NC[C@H]1CN(c2ccc(N3CCOCC3)c(F)c2)C(=O)O1"
  Limit Operator: "="
  MBC, µg/mL: 16

* * *

The following compounds are shown together with reported MIC values.
Test system: Staphylococcus aureus
Protocol Details: Antibacterial activity against methicillin-sensitive Staphylococcus aureus NRS107 after 18 hrs by broth microdilution assay
Type: functional
Condition Context: NRS107, 18 h

- Smiles Representation: "CC(=O)NC[C@H]1CN(c2ccc(N3CCOCC3)c(F)c2)C(=O)O1"
  MIC: "1 µg/mL"
- Smiles Representation: "Cc1nc(-c2ccc(C(C)(C)C)cc2)sc1-c1ccnc(NC(=N)N(C)C)n1"
  MIC: "8 µg/mL"
- Smiles Representation: "Cc1nc(-c2ccc(C(C)(C)C)cc2)sc1-c1ccnc(NCCN)n1"
  MIC: "4 µg/mL"
- Smiles Representation: "Cc1nc(-c2ccc(C(C)(C)C)cc2)sc1-c1ccnc(NC(=N)c2ccccn2)n1"
  MIC: "64 µg/mL"
- Smiles Representation: "Cc1nc(-c2ccc(C(C)(C)C)cc2)sc1-c1ccnc(NC(=N)c2cccnc2)n1"
  MIC: "4 µg/mL"

* * *

The following molecules are shown together with reported MBC values.
Tested on: Staphylococcus aureus
Protocol Details: Bactericidal activity against methicillin-resistant Staphylococcus aureus NRS386 incubated fo 18 hrs followed by re-plating on tryptic soy agar plates at 37 degC for 18 hrs by broth microdilution assay
Format: functional
Condition Context: NRS386, 18 h

- Molecule: "CC(=O)NC[C@H]1CN(c2ccc(N3CCOCC3)c(F)c2)C(=O)O1 [LINEZOLID]"
  Unit Name: "µg/mL"
  MBC: 64
- Molecule: "Cc1nc(-c2ccc(C(C)(C)C)cc2)sc1-c1ccnc(NC(=N)c2ccccn2)n1"
  Unit Name: "µg/mL"
  MBC: 2
- Molecule: "Cc1nc(-c2ccc(C(C)(C)C)cc2)sc1-c1ccnc(NC(=N)N(C)C)n1"
  Unit Name: "µg/mL"
  MBC: 8
- Molecule: "Cc1nc(-c2ccc(C(C)(C)C)cc2)sc1-c1ccnc(NC(=N)c2cccnc2)n1"
  Unit Name: "µg/mL"
  MBC: 4

* * *

System: Staphylococcus aureus
Protocol Details: Antibacterial activity against methicillin-sensitive Staphylococcus aureus ATCC 6538 after 18 hrs by broth microdilution assay
Type: functional
Condition Context: ATCC 6538, 18 h

- Compound: "CC(=O)NC[C@H]1CN(c2ccc(N3CCOCC3)c(F)c2)C(=O)O1 [LINEZOLID]"
  Assayed Target: "Staphylococcus aureus"
  MIC [µg/mL]: 1
- Compound: "Cc1nc(-c2ccc(C(C)(C)C)cc2)sc1-c1ccnc(NC(=N)c2cccnc2)n1"
  Assayed Target: "Staphylococcus aureus"
  MIC [µg/mL]: 4
- Compound: "Cc1nc(-c2ccc(C(C)(C)C)cc2)sc1-c1ccnc(NC(=N)N2CCOCC2)n1"
  Assayed Target: "Staphylococcus aureus"
  MIC [µg/mL]: 4
- Compound: "Cc1nc(-c2ccc(C(C)(C)C)cc2)sc1-c1ccnc(NCCN)n1"
  Assayed Target: "Staphylococcus aureus"
  MIC [µg/mL]: 4
- Compound: "Cc1nc(-c2ccc(C(C)(C)C)cc2)sc1-c1ccnc(NC(=N)N(C)C)n1"
  Assayed Target: "Staphylococcus aureus"
  MIC [µg/mL]: 8
- Compound: "Cc1nc(-c2ccc(C(C)(C)C)cc2)sc1-c1ccnc(NC(=N)c2ccccn2)n1"
  Assayed Target: "Staphylococcus aureus"
  MIC [µg/mL]: 2

* * *

Test system: Caco-2
Protocol Details: Cytotoxicity against human Caco2 cells at 32 ug/ml after 2 hrs by MTS assay
Type: cell-based
Condition Context: caco-2, 2 h
Quantity Name: Activity

- Smiles Representation: "Cc1nc(-c2ccc(C(C)(C)C)cc2)sc1-c1ccnc(NC(=N)N2CCOCC2)n1"
  Result: "Non-Toxic"
- Smiles Representation: "Cc1nc(-c2ccc(C(C)(C)C)cc2)sc1-c1ccnc(NC(=N)c2ccccn2)n1"
  Result: "Toxic"
- Smiles Representation: "Cc1nc(-c2ccc(C(C)(C)C)cc2)sc1-c1ccnc(NC(=N)N(C)C)n1"
  Result: "Toxic"
- Smiles Representation: "Cc1nc(-c2ccc(C(C)(C)C)cc2)sc1-c1ccnc(NCCN)n1"
  Result: "Non-Toxic"
- Smiles Representation: "Cc1nc(-c2ccc(C(C)(C)C)cc2)sc1-c1ccnc(NC(=N)c2cccnc2)n1"
  Result: "Non-Toxic"

* * *

Tested on: Staphylococcus aureus
Protocol Details: Bactericidal activity against methicillin-resistant Staphylococcus aureus NRS123 USA400 incubated fo 18 hrs followed by re-plating on tryptic soy agar plates at 37 degC for 18 hrs by broth microdilution assay
Assay type: functional
Condition Context: NRS123 USA400, 18 h
The following compounds are shown together with reported MBC values.
Quantity Name: MBC

- Compound: "Cc1nc(-c2ccc(C(C)(C)C)cc2)sc1-c1ccnc(NC(=N)N(C)C)n1"
  Result: "8 µg/mL"
- Compound: "Cc1nc(-c2ccc(C(C)(C)C)cc2)sc1-c1ccnc(NC(=N)c2ccccn2)n1"
  Result: "2 µg/mL"
- Compound: "Cc1nc(-c2ccc(C(C)(C)C)cc2)sc1-c1ccnc(NC(=N)c2cccnc2)n1"
  Result: "4 µg/mL"
- Compound: "CC(=O)NC[C@H]1CN(c2ccc(N3CCOCC3)c(F)c2)C(=O)O1 [LINEZOLID]"
  Result: "32 µg/mL"

* * *

Test system: Staphylococcus aureus
Protocol Details: Inhibition of biofilm formation in methicillin-resistant Staphylococcus aureus NRS384 USA300 at 2 times MIC after 24 hrs by crystal violet staining-based spectrophotometric analysis relative to control
Parameters: scale not given: the % may be the effect or the level left
The threshold is 50%. Values of Activity beneath it are tagged 1; values meeting or exceeding it are tagged -1.

- Smiles Representation: "Cc1nc(-c2ccc(C(C)(C)C)cc2)sc1-c1ccnc(NC(=N)c2cccnc2)n1"
  Label Value: -1
- Smiles Representation: "Cc1nc(-c2ccc(C(C)(C)C)cc2)sc1-c1ccnc(NCCN)n1"
  Label Value: -1
- Smiles Representation: "Cc1nc(-c2ccc(C(C)(C)C)cc2)sc1-c1ccnc(NC(=N)N(C)C)n1"
  Label Value: 1
- Smiles Representation: "Cc1nc(-c2ccc(C(C)(C)C)cc2)sc1-c1ccnc(NC(=N)N2CCOCC2)n1"
  Label Value: 1
